The values you see were collected from ChEMBL document CHEMBL1133710.

biological target: D(2) dopamine receptor (Bos taurus, UniProt P20288); assay: Binding Affinity was tested on low Affinity Site of Bovine dopamine receptor D2. Tested for ability to displace the radioligand [3H]spiperone at the binding site.
Sequence (P20288 whole entry): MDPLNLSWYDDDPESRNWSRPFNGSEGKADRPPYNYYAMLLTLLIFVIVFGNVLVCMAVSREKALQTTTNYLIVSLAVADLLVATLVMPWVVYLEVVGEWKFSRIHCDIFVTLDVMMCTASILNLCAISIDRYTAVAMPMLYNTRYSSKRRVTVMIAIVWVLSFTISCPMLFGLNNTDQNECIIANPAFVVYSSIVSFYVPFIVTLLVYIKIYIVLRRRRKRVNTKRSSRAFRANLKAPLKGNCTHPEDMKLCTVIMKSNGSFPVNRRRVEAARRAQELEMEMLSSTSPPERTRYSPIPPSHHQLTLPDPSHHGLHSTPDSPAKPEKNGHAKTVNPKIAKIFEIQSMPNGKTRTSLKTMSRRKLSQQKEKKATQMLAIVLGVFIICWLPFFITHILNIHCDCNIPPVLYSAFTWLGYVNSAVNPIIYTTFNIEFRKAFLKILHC
Measure name: pKi
Reminder that pKi means the negative base-10 logarithm of the concentration expressed in mol/L.

input: Dear colleague, please send me the reported pKi for CCCN(CCC)C1CC=C(C#C[Si](C)(C)C)CC1 (stereo unspecified) when you can.
output: 5.12

====

target: D(3) dopamine receptor (Homo sapiens, UniProt P35462); test: Binding Affinity was determined in the presence of 100 micro M Gpp(NH)p for decoupling of the ternary complex of Compound to Dopamine receptor D3
Sequence (P35462 whole entry): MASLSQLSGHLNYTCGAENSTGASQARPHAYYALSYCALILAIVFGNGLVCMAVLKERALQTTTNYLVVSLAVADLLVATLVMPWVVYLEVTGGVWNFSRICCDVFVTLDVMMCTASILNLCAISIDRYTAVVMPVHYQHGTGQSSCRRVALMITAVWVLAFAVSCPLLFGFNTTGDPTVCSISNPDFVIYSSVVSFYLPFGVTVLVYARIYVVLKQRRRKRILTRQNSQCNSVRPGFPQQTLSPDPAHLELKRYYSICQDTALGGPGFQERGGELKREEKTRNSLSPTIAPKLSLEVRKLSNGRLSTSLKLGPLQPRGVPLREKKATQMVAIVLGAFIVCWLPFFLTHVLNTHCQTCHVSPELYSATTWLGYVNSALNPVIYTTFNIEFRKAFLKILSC
Measure name: pKi
Reminder that pKi means the negative base-10 logarithm of the concentration expressed in mol/L.

                                   compound  reported_measurement
0  C#CC1=CCC(N(CCC)CCC)CC1 (configuration not stated)                  6.14

# context switch: different compound, same pKi
input: Name the recorded pKi of CCCN(CCC)C1CC=C(C#C[Si](C)(C)C)CC1 (configuration not stated) , assay system D(3) dopamine receptor (Homo sapiens, UniProt P35462).
output: 5.72
